Data provenance: PubChem BioAssay AID1845200

- Tested on: ASPS-1 complex tumor spheroids, viability
- method_summary: Anticancer human tumor ASPS-1 cell line growth inhibition;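 also: spheroids exposed to agents for 7 days after 3 days of growth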;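 as to viability, T/C: 100% = DMSO vehicle treated spheroids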
- setup_conditions: second compound 10 µM; first compound 10 µM; stronger effect = lower value
measurement_label: viability, T/C (%)
The reply should be a number in %, with the unit left off.

See these solved cases before continuing.
In [3]: df
Out[3]:
                                   compound  measurement_label  reported_measurement
0  [2H]c1nc(C)nc([2H])c1-c1cc(NC[C@@H](C)c2cccc3c(C(=O)NC)ccnc23)ncn1 + Cn1nnc2c(C(N)=O)ncn2c1=O     viability, T/C                  89.7
1  CC1COCCN1c1cc(-c2ccnn2C)c2ccnc(-c3ccn[nH]3)c2n1 (stereo unspecified) + Cn1nnc2c(C(N)=O)ncn2c1=O     viability, T/C                  52.4
2  COc1ccc([C@@H](O)c2cc(-c3ncnc4cc(N5CCOCC5)ccc34)c(F)cc2Cl)nn1 + Cn1nnc2c(C(N)=O)ncn2c1=O     viability, T/C                  40.3
3  Cc1cc(C)c(CNC(=O)c2cc(-c3ccc(CN4CCOCC4)cc3)cc3c2cnn3C2CCCC2)c(=O)[nH]1 + Cn1nnc2c(C(N)=O)ncn2c1=O     viability, T/C                    82

Asked: # lookup: viability, T/C of COc1cc(C)[nH]c(=O)c1CN1CCc2c(Cl)cc(C(OC)C3COC3)c(Cl)c2C1=O (stereo unspecified) + Cn1nnc2c(C(N)=O)ncn2c1=O
Given back: 81.2

Asked: Dear colleague, I am looking for the recorded viability, T/C of the following compound: CC(C)n1c(=O)n(C)c2cnc3cc(F)c(-c4ccc(OCCCN5CCCCC5)nc4)cc3c21 + Cn1nnc2c(C(N)=O)ncn2c1=O
Given back: 25.4

###

- System: ASPS-1 complex tumor spheroids, viability
- method_summary: Anticancer human tumor ASPS-1 cell line growth inhibition;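 also: spheroids exposed to agents for 7 days after 3 days of growth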;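 as to viability, T/C: 100% = DMSO vehicle treated spheroids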
- setup_conditions: second compound 10 µM; first compound 0.1 µM; stronger effect = lower value
- Method: Multicellular complex tumor spheroid response to DNA repair inhibitors in combination with DNA-damaging drugs This study explores the anticancer activities of DNA-damaging drugs and inhibitors of DNA damage repair, both as single agents and in combinations. […] Twenty-six patient-derived or established malignant cell lines were evaluated representing sarcoma, melanoma, small cell lung cancer (SCLC), non-small cell lung cancer (NSCLC), as well as bladder, ovarian and pancreatic cancers. […]
Quick reference for viability, T/C among some compounds
Quick reminder: number only, in %, skip the unit.

Answered examples (2):
>>> df
                                   compound  reported_measurement
0  Cc1cc(C)c(CNC(=O)c2cc(-c3ccc(CN4CCOCC4)cc3)cc3c2cnn3C2CCCC2)c(=O)[nH]1 + Cn1nnc2c(C(N)=O)ncn2c1=O                  77.6
1  COc1cc(C)[nH]c(=O)c1CN1CCc2c(Cl)cc(C(OC)C3COC3)c(Cl)c2C1=O (stereo unspecified) + Cn1nnc2c(C(N)=O)ncn2c1=O                  83.9

Asked: Query (compound): CC(C)n1c(=O)n(C)c2cnc3cc(F)c(-c4ccc(OCCCN5CCCCC5)nc4)cc3c21 + Cn1nnc2c(C(N)=O)ncn2c1=O ; field requested: viability, T/C
Given back: 79.8

Asked: # input compound: [2H]c1nc(C)nc([2H])c1-c1cc(NC[C@@H](C)c2cccc3c(C(=O)NC)ccnc23)ncn1 + Cn1nnc2c(C(N)=O)ncn2c1=O ; wanted: its viability, T/C
Given back: 93.2

Asked: Can you look up the measured viability, T/C of CC1COCCN1c1cc(-c2ccnn2C)c2ccnc(-c3ccn[nH]3)c2n1 (stereo unspecified) + Cn1nnc2c(C(N)=O)ncn2c1=O for me?
Given back: 39.4

Asked: Which viability, T/C is listed for COc1ccc([C@@H](O)c2cc(-c3ncnc4cc(N5CCOCC5)ccc34)c(F)cc2Cl)nn1 + Cn1nnc2c(C(N)=O)ncn2c1=O ?
Given back: 94.9

###

Reported viability, T/C is given for each of the following compounds.
- System: ASPS-1 complex tumor spheroids, viability
- method_summary: Anticancer human tumor ASPS-1 cell line growth inhibition;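 also: spheroids exposed to agents for 7 days after 3 days of growth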;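 as to viability, T/C: 100% = DMSO vehicle treated spheroids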
- setup_conditions: second compound 0.0949 µM; first compound 10 µM; stronger effect = lower value

compound	target_entity	viability, T/C
COc1ccc([C@@H](O)c2cc(-c3ncnc4cc(N5CCOCC5)ccc34)c(F)cc2Cl)nn1 + CC[C@@]1(O)C(=O)OCc2c1cc1n(c2=O)Cc2cc3c(CN(C)C)c(O)ccc3nc2-1	ASPS-1 complex tumor spheroids, viability	26.1%
[2H]c1nc(C)nc([2H])c1-c1cc(NC[C@@H](C)c2cccc3c(C(=O)NC)ccnc23)ncn1 + CC[C@@]1(O)C(=O)OCc2c1cc1n(c2=O)Cc2cc3c(CN(C)C)c(O)ccc3nc2-1	ASPS-1 complex tumor spheroids, viability	68.4%
COc1cc(C)[nH]c(=O)c1CN1CCc2c(Cl)cc(C(OC)C3COC3)c(Cl)c2C1=O (stereo unspecified) + CC[C@@]1(O)C(=O)OCc2c1cc1n(c2=O)Cc2cc3c(CN(C)C)c(O)ccc3nc2-1	ASPS-1 complex tumor spheroids, viability	59.3%

Asked: Give its viability, T/C value. Item: Cc1cc(C)c(CNC(=O)c2cc(-c3ccc(CN4CCOCC4)cc3)cc3c2cnn3C2CCCC2)c(=O)[nH]1 + CC[C@@]1(O)C(=O)OCc2c1cc1n(c2=O)Cc2cc3c(CN(C)C)c(O)ccc3nc2-1
Given back: 52.8%

Asked: Which viability, T/C is listed for CC1COCCN1c1cc(-c2ccnn2C)c2ccnc(-c3ccn[nH]3)c2n1 (stereo unspecified) + CC[C@@]1(O)C(=O)OCc2c1cc1n(c2=O)Cc2cc3c(CN(C)C)c(O)ccc3nc2-1 ?
Given back: 36.4%

Asked: Please report the recorded viability, T/C for CC(C)n1c(=O)n(C)c2cnc3cc(F)c(-c4ccc(OCCCN5CCCCC5)nc4)cc3c21 + CC[C@@]1(O)C(=O)OCc2c1cc1n(c2=O)Cc2cc3c(CN(C)C)c(O)ccc3nc2-1 .
Given back: 26.1%

###

- System: ASPS-1 complex tumor spheroids, viability
- method_summary: Anticancer human tumor ASPS-1 cell line growth inhibition;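 also: spheroids exposed to agents for 7 days after 3 days of growth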;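 as to viability, T/C: 100% = DMSO vehicle treated spheroids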
- setup_conditions: second compound 3.16 µM; first compound 3.16 µM; stronger effect = lower value
measurement_label: viability, T/C (%)
State the answer as a number, implicitly in %.

Asked: What does the record list as viability, T/C for COc1ccc([C@@H](O)c2cc(-c3ncnc4cc(N5CCOCC5)ccc34)c(F)cc2Cl)nn1 + Cn1nnc2c(C(N)=O)ncn2c1=O ?
Given back: 75.7

Asked: Value lookup for viability, T/C; key = Cc1cc(C)c(CNC(=O)c2cc(-c3ccc(CN4CCOCC4)cc3)cc3c2cnn3C2CCCC2)c(=O)[nH]1 + Cn1nnc2c(C(N)=O)ncn2c1=O
Given back: 92

Asked: What does the record list as viability, T/C for [2H]c1nc(C)nc([2H])c1-c1cc(NC[C@@H](C)c2cccc3c(C(=O)NC)ccnc23)ncn1 + Cn1nnc2c(C(N)=O)ncn2c1=O ?
Given back: 101

Asked: viability, T/C lookup needed for CC1COCCN1c1cc(-c2ccnn2C)c2ccnc(-c3ccn[nH]3)c2n1 (stereo unspecified) + Cn1nnc2c(C(N)=O)ncn2c1=O , thanks.
Given back: 43

Asked: Given the entry COc1cc(C)[nH]c(=O)c1CN1CCc2c(Cl)cc(C(OC)C3COC3)c(Cl)c2C1=O (stereo unspecified) + Cn1nnc2c(C(N)=O)ncn2c1=O , report its measured viability, T/C.
Given back: 103

Asked: Requested read-out: viability, T/C. Entry: CC(C)n1c(=O)n(C)c2cnc3cc(F)c(-c4ccc(OCCCN5CCCCC5)nc4)cc3c21 + Cn1nnc2c(C(N)=O)ncn2c1=O
Given back: 82.4

###

- Test system: ASPS-1 complex tumor spheroids, viability
- method_summary: Anticancer human tumor ASPS-1 cell line growth inhibition;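 also: spheroids exposed to agents for 7 days after 3 days of growth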
- setup_conditions: curve of first compound; second compound 0.003 µM
pIC50: −log10 of the molar value.
measurement_label: pIC50

Below are worked cases with known answers.
compound	measurement_label	reported_measurement
COc1ccc([C@@H](O)c2cc(-c3ncnc4cc(N5CCOCC5)ccc34)c(F)cc2Cl)nn1 + CC[C@@]1(O)C(=O)OCc2c1cc1n(c2=O)Cc2cc3c(CN(C)C)c(O)ccc3nc2-1	pIC50	5.05
[2H]c1nc(C)nc([2H])c1-c1cc(NC[C@@H](C)c2cccc3c(C(=O)NC)ccnc23)ncn1 + CC[C@@]1(O)C(=O)OCc2c1cc1n(c2=O)Cc2cc3c(CN(C)C)c(O)ccc3nc2-1	pIC50	< 5.00

# evaluate next
Asked: # get_value(readout='pIC50', item= Cc1sc2c(c1C)C(c1ccc(Cl)cc1)=NC(CC(=O)Nc1ccc(O)cc1)c1nnc(C)n1-2 (stereo not drawn) + COc1cc2c(cc1O)CCNC21CSC2c3c(OC(C)=O)c(C)c4c(c3C(COC1=O)N1C(O)C3Cc5cc(C)c(OC)c(O)c5C(C21)N3C)OCO4 )
Given back: > 8.02
